subjectOfTest: multidrug resistance protein 2 (MRP2) (Homo sapiens)
Construct: expressed in transfected cells; host or cells: Spodoptera frugiperda (Sf9) ovarian cells
Sequence (Q92887 whole entry): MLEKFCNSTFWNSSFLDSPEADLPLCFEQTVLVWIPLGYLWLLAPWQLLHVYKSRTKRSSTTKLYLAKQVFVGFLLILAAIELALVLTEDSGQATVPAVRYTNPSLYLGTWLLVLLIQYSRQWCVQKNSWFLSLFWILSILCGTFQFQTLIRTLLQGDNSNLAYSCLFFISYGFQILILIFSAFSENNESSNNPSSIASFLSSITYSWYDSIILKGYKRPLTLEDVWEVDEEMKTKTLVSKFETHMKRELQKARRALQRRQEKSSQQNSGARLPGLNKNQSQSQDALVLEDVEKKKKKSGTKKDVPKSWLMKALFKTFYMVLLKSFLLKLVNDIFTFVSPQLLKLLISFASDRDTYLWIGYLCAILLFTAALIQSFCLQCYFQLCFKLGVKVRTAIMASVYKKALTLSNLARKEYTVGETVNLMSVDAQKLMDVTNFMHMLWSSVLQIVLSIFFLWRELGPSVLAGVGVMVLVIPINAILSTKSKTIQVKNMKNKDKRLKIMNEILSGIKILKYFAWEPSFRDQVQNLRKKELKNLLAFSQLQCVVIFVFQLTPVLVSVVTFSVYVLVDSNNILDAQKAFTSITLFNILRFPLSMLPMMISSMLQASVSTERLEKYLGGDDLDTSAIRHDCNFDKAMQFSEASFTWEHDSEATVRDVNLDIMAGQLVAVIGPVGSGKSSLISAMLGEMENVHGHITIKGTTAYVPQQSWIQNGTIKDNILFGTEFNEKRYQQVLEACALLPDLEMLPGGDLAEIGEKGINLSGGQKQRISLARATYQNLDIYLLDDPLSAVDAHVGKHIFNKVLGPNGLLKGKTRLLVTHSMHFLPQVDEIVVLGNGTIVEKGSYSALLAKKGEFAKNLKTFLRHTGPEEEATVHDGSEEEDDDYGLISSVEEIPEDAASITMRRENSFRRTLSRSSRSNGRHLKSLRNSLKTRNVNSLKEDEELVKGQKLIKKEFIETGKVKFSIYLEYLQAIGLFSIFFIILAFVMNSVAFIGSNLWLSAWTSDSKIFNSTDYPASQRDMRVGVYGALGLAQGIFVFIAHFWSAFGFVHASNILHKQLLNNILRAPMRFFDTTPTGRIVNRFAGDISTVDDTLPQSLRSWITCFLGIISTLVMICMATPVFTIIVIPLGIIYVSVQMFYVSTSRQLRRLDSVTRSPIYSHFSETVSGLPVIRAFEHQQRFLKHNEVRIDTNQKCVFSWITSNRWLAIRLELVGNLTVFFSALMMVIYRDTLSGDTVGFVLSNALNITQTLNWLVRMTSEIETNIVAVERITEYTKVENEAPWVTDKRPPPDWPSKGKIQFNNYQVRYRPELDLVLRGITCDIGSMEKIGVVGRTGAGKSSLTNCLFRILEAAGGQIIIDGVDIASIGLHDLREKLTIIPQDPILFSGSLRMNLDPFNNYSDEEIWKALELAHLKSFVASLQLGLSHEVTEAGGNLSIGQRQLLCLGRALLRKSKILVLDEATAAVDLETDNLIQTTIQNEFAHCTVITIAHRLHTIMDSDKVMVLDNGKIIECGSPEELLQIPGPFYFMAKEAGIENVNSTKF
assayDetails: Inhibition of hepatic transporter MRP2, transfected Sf9 cells
Assay type: cell-based
pIC50: −log10 of the molar value.
observedProperty: pIC50

GET /values?readout=pIC50&item= COc1ccccc1Oc1c(NS(=O)(=O)c2ccc(C(C)(C)C)cc2)nc(-c2ncccn2)nc1OCCO [Bosentan]
< 4.00

* * *

subjectOfTest: organic anion-transporting polypeptide 1B1 (OATP1B1) (Homo sapiens, UniProt Q9Y6L6)
Construct: expressed in transfected cells; host or cells: CHO
Sequence (Q9Y6L6 whole entry): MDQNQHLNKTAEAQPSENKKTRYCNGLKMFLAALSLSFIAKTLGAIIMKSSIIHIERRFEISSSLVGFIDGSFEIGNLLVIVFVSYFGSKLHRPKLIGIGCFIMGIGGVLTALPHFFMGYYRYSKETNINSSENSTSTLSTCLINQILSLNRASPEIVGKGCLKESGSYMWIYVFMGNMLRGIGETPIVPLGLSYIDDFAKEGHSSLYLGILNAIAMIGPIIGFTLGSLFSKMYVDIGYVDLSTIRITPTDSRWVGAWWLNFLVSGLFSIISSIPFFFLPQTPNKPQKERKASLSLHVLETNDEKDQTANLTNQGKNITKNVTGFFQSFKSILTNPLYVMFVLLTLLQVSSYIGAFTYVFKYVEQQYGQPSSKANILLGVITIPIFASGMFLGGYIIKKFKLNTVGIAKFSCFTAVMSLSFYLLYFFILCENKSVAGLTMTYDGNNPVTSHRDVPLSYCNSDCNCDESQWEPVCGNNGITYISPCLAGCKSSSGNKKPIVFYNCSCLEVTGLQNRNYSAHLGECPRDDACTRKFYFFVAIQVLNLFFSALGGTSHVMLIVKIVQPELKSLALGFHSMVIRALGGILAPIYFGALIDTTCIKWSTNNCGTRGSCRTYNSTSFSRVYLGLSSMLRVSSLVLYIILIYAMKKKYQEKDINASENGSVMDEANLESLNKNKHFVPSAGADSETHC
assayDetails: Inhibition of OATP1B1, transfected CHO cells
Type: cell-based
observedProperty: pIC50
pIC50 is defined as minus the log10 of a concentration measured in mol/L.

Example compounds with recorded pIC50:
smilesString	pIC50
COC(c1ccccc1)(c1ccccc1)[C@H](Oc1nc(C)cc(C)n1)C(=O)O	4.33
COc1ccccc1Oc1c(NS(=O)(=O)c2ccc(C(C)(C)C)cc2)nc(-c2ncccn2)nc1OCCO	5.30

Field: next compound
Can you share its pIC50? I mean this compound: CCCNS(=O)(=O)Nc1ncnc(OCCOc2ncc(Br)cn2)c1-c1ccc(Br)cc1
5.70

* * *

subjectOfTest: OATP1B3 (Homo sapiens)
Construct: expressed in transfected cells; host or cells: CHO
Sequence (Q9NPD5 whole entry): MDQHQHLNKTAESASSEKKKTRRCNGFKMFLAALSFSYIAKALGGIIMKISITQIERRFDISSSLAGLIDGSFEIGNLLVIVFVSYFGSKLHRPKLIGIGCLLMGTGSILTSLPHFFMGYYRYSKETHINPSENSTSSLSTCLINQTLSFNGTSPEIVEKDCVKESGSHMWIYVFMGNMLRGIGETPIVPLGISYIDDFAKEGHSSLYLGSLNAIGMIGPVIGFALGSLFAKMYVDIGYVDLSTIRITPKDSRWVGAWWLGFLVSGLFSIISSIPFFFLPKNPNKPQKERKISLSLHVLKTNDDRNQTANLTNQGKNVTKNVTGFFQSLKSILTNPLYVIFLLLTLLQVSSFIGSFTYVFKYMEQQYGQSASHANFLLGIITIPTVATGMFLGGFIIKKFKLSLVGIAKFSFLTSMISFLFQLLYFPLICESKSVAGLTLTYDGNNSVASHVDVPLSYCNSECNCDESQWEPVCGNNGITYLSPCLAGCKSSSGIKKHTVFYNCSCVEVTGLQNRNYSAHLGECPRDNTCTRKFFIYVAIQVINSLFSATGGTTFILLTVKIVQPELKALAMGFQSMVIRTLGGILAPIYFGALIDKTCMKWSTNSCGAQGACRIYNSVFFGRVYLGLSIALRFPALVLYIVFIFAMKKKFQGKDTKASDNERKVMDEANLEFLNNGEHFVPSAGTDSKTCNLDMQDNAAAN
assayDetails: Inhibition of OATP1B3, transfected CHO cells
Type: cell-based
testConditions: OAT1B3
Listing of recorded IC50 by entry.
Give me the value, and tack the unit on after it.

Example results:
compound	observedProperty	valueReported
CCCNS(=O)(=O)Nc1ncnc(OCCOc2ncc(Br)cn2)c1-c1ccc(Br)cc1 [Macitentan]	IC50	2.1 µM
COc1ccccc1Oc1c(NS(=O)(=O)c2ccc(C(C)(C)C)cc2)nc(-c2ncccn2)nc1OCCO [Bosentan]	IC50	5.2 µM

Would you kindly look at the next entry?
Which IC50 reading was recorded for the compound COC(c1ccccc1)(c1ccccc1)[C@H](Oc1nc(C)cc(C)n1)C(=O)O [Ambrisentan] ?
44.6 µM

* * *

Below: a set of entries, each annotated with reported IC50.
subjectOfTest: human bile salt export pump (BSEP) (Homo sapiens, UniProt O95342)
Sequence (O95342 whole entry): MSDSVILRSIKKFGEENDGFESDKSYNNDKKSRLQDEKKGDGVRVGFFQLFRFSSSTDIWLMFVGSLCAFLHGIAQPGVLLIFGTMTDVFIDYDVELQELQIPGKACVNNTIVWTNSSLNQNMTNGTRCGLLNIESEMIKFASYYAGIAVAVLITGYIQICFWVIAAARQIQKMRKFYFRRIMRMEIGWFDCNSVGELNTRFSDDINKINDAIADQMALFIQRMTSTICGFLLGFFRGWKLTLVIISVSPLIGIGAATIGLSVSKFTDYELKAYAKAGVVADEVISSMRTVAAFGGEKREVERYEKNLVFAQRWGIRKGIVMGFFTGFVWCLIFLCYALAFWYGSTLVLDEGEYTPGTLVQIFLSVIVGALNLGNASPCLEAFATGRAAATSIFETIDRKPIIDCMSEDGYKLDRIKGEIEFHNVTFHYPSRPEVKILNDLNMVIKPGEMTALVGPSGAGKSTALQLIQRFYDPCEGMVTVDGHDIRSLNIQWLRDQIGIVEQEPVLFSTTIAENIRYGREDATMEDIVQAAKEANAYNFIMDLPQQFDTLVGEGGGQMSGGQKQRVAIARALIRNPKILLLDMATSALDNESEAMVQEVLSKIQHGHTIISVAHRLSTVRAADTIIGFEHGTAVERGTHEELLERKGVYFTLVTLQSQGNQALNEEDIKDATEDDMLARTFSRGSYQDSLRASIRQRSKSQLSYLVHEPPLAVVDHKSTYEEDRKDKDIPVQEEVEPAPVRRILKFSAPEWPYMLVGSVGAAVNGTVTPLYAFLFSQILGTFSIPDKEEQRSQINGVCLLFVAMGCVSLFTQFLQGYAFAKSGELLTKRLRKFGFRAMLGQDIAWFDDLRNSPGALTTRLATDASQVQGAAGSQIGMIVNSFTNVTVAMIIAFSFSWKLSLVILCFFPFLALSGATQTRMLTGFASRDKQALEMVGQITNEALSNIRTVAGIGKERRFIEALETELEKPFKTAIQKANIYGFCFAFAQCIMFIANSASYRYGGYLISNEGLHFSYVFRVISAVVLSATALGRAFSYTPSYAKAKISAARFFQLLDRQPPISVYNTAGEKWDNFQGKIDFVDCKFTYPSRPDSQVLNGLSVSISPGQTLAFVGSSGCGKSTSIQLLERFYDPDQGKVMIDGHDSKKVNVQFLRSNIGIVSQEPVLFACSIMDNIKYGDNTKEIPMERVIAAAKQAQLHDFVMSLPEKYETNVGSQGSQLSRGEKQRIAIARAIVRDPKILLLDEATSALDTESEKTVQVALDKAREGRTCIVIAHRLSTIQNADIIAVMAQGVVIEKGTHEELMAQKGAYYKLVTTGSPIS
Supply the numeric figure in µM, leaving out any unit text.

compound	IC50, µM
COc1ccccc1Oc1c(NS(=O)(=O)c2ccc(C(C)(C)C)cc2)nc(-c2ncccn2)nc1OCCO [Bosentan]	54.4

# query: IC50 | item CCCNS(=O)(=O)Nc1ncnc(OCCOc2ncc(Br)cn2)c1-c1ccc(Br)cc1 [Macitentan] | system: human bile salt export pump (BSEP) (Homo sapiens, UniProt O95342)
12

* * *

subjectOfTest: P-glycoprotein (Pgp) (Homo sapiens)
Construct: expressed in transfected cells; host or cells: Madin-Darby canine kidney strain II (MDCKII)
assayDetails: Inhibition of Pgp, transfected MDCKII cells
Assay type: cell-based
observedProperty: IC50 (µM)
Enter your answer as a number in µM; do not include the unit.

Under P-glycoprotein (Pgp) (Homo sapiens): IC50 value of CCCNS(=O)(=O)Nc1ncnc(OCCOc2ncc(Br)cn2)c1-c1ccc(Br)cc1 ?
64

* * *

subjectOfTest: breast cancer resistance protein (BCRP) (Homo sapiens, UniProt Q9UNQ0)
Construct: expressed in transfected cells; host or cells: MDCKII
Sequence (Q9UNQ0 whole entry): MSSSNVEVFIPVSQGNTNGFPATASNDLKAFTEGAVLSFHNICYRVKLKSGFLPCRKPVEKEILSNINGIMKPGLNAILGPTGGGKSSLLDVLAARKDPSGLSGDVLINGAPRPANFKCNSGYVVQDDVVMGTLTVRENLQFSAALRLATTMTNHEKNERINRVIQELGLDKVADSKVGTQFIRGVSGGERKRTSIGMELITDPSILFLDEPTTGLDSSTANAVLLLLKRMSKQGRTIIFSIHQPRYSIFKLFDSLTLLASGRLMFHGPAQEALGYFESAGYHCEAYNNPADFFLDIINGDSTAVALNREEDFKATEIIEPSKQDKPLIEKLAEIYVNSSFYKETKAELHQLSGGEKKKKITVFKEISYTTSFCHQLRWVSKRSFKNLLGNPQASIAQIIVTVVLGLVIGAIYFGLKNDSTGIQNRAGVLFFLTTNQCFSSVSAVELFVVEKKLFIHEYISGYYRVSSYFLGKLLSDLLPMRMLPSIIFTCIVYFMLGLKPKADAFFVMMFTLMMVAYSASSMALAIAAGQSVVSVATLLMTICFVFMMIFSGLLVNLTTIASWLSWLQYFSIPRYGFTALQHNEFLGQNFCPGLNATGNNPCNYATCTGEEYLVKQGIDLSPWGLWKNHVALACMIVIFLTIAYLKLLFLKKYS
assayDetails: Inhibition of BCRP, transfected MDCKII cells
Type: cell-based
testConditions: human, transfected MDCKII cells
observedProperty: IC50

Recorded IC50 for COc1ccccc1Oc1c(NS(=O)(=O)c2ccc(C(C)(C)C)cc2)nc(-c2ncccn2)nc1OCCO [Bosentan] , please?
> 100 µM
